Tested on: RXF 393 renal
Experiment: NCI tumour cell line growth inhibition, 48 h
Catalogue of TGI readings, one per entry.

Example cases with answers are listed next.
IN: Suppose we examine the molecule CCOC(=O)NC(=O)c1cn(C2OC(COC(=O)CCCCCCCCC(=O)OCC3OC(n4cc(C(=O)NC(=O)OCC)c(=O)[nH]c4=O)C4OC(C)(C)OC34)C3OC(C)(C)OC32)c(=O)[nH]c1=O (centres undefined) ; what TGI value has been reported?
OUT: > 100 µM

IN: Suppose we examine the molecule "COc1cc2ccc3c4cc(OC)c(OC(C)C)cc4c[n+](C)c3c2cc1OC" ; what TGI value has been reported?
OUT: > 100 µM

IN: Suppose we examine the molecule "COC(=O)[C@H](Cc1cn(C)cn1)NC(=O)[C@@H](NC(=O)Nc1cc(C(F)(F)F)cc(C(F)(F)F)c1)C(C)(C)C" ; what TGI value has been reported?
OUT: > 10 µM

IN: Suppose we examine the molecule "O=S(=O)(NCCNc1cc(-c2cn(-c3ccccc3)nc2-c2cccc(O)c2)ccn1)c1ccc(Br)cc1" ; what TGI value has been reported?
OUT: 6.96 µM

IN: Suppose we examine the molecule "CCOC(=O)/C=C/c1c[nH]c(=O)[nH]c1=O" ; what TGI value has been reported?
OUT: > 75 µM

IN: Suppose we examine the molecule "OCCCCCNc1ccnc2cc(Cl)ccc12" ; what TGI value has been reported?
OUT: > 100 µM

IN: Suppose we examine the molecule FC(F)(F)C1(c2ccccc2)SCc2nc3ccccc3n21 (centres undefined) ; what TGI value has been reported?
OUT: > 100 µM

IN: Suppose we examine the molecule COC(=O)C1(Cc2ccc(C)cc2)Cc2c(C)cccc2C1=O (centres undefined) ; what TGI value has been reported?
OUT: 40.5 µM

Continuing:
IN: Suppose we examine the molecule "C[C@@H]1OC(=O)NN=C1c1ccc(-c2ccc(F)cc2)c(C(F)(F)F)c1" ; what TGI value has been reported?
OUT: 7.62 µM

---

Tested on: A498 renal
Test: NCI tumour cell line growth inhibition, 48 h; in the data active = GI50 below about 0.43 µM; inactive = the rest
In this exercise, the only acceptable responses are active, inactive

IN: Assay outcome for Cc1ccc2c(c1)-c1oc(=O)c(-c3cc4ccccc4oc3=O)cc1C(O)O2 (centres undefined) : what was it?
OUT: inactive

Continuing:
IN: Assay outcome for "COc1ccc(-c2cc(-c3ccc(Cl)cc3)nc(SCCCCCCC(=O)NO)n2)cc1" : what was it?
OUT: inactive

IN: Assay outcome for "CCN(CC)CCOc1ccc(Cc2ccccc2)cc1" : what was it?
OUT: inactive

IN: Assay outcome for "Cc1ccccc1C[P+](c1ccccc1)(c1ccccc1)c1ccccc1" : what was it?
OUT: inactive

IN: Assay outcome for CSC1SCC2C(=O)N(C)C(C(C)C)C(=O)OCC(NC(=O)c3cnc4ccccc4n3)C(=O)NC(C)C(=O)N(C)C1C(=O)N(C)C(C(C)C)C(=O)OCC(NC(=O)c1cnc3ccccc3n1)C(=O)NC(C)C(=O)N2C (centres undefined) : what was it?
OUT: active

IN: Assay outcome for COC1C(O)CC(OC2CC(OC3CC(O[C@@H]4C(=O)c5c(cc6cc(OC7CC(OC8CC(O)C(O)C(C)O8)C(O)C(C)O7)c(C)c(O)c6c5O)CC4[C@H](OC)[C@@H](O)C(C)=O)OC(C)C3O)OC(C)C2O)OC1C (some centres undefined) : what was it?
OUT: active

IN: Assay outcome for "COCC(=O)NC/C=C/c1ccc2ncnc(Nc3ccc(Oc4ccc(C)nc4)c(C)c3)c2c1" : what was it?
OUT: inactive

IN: Assay outcome for "COC(=O)[C@H](Cc1cn(C)cn1)NC(=O)[C@@H](NC(=O)Nc1cc(C(F)(F)F)cc(C(F)(F)F)c1)C(C)(C)C" : what was it?
OUT: inactive

IN: Assay outcome for "COc1ccccc1N1CCN(CCCOc2ccc(C(=O)/C=C3/C(=O)Nc4ccccc43)cc2)CC1" : what was it?
OUT: inactive

IN: Assay outcome for "C[C@@H]1OC(=O)NN=C1c1ccc(-c2ccc(F)cc2)c(C(F)(F)F)c1" : what was it?
OUT: inactive

IN: Assay outcome for "COc1ccc(C(=O)c2cc(C)c(OC)c(C)c2)c(OC)c1N(C(=O)CCl)C(=O)CCl" : what was it?
OUT: active

IN: Assay outcome for "CCCCCC(=C/c1ccccc1)/C=N/N=C(N)N" : what was it?
OUT: inactive

IN: Assay outcome for CCCC(=O)Nc1c(I)cc(I)c(CC(CC)C(=O)O)c1I (centres undefined) : what was it?
OUT: inactive

IN: Assay outcome for "N#Cc1ccc(NC(=O)Nc2nc3ccc(OC(F)(F)F)cc3s2)cc1" : what was it?
OUT: inactive
